Hey, just so you know, these numbers are from patent US8653075B2.

Target: human chemokine receptor CCR3 (Homo sapiens)
Construct: expressed in transfected cells; host or cells: K562 cell line (hCCR3-C1 cells), membrane preparation
Test: CCR3 receptor binding assay (SPA, 125I-eotaxin-1 displacement, hCCR3-C1 K562 cell membranes)
Settings: 1 μM test compound; human Eotaxin-1 at human CCR3-Rezeptor; read-out: CCR3 % inh @ 1 μM
Would you kindly list inhibition at 1 µM for each of these compounds?
Answers are plain numbers, in %.

| compound | unit.name | inhibition at 1 µM |
| --- | --- | --- |
| Cc1cc(CN2CCC(N3C(=O)CC[C@H]3C(=O)NCc3cc(C(C)C)no3)CC2)ccc1Cl | % | 28 |
| Cc1cc(CN2C3CCC2CC(N2C(=O)CC[C@@H]2C(=O)Nc2cccc(N(CC(=O)N4CCC4)S(C)(=O)=O)c2)C3)ccc1Cl (stereo partly shown) | % | 97 |
| Cc1cc(CN2CCC(N3C(=O)N(C)C[C@@H]3C(=O)Nc3cccc(-c4cc[nH]n4)c3)CC2)ccc1Cl | % | 95 |

With those in mind, consider the next compound.
Any idea what its inhibition at 1 µM is? The compound is CNC(=O)c1cccc(NC(=O)[C@H]2CCC(=O)N2C2CCN(Cc3ccc(F)c(Cl)c3)CC2)c1 75

###

Parameter 'readout' = log10(Ki); parameter 'system' = human chemokine receptor CCR3 (Homo sapiens, UniProt P51677).
Response schema: value (number) is log10 of Ki in units of nM.

| molecule | log10(Ki) |
| --- | --- |
| Cc1cc(CN2C3CCC2CC(N2C(=O)CC[C@@H]2C(=O)Nc2cccc(N(CC(=O)N(C)C)S(C)(=O)=O)c2)C3)ccc1Cl (stereo partly drawn) | 1.57 |
| COc1ccccc1C1CCCN(C(=O)[C@H]2CCC(=O)N2C2CCN(Cc3ccc(Cl)c(C)c3)CC2)C1 (stereo partly drawn) | 2.72 |
| Cc1cc(CN2CCC(N3C(=O)CC[C@@H]3C(=O)Nc3cccc(-c4nnn(C)n4)c3)CC2)ccc1Cl | 0.78 |
| Cc1cc(C(=O)N(C)C)cc(NC(=O)[C@H]2CCC(=O)N2C2CCN(Cc3ccc(Cl)c(C)c3)CC2)n1 | 0.48 |
| CNc1nc(-c2cccc(NC(=O)[C@H]3CN(C)C(=O)N3C3CCN(Cc4ccc(Cl)c(C)c4)CC3)c2)no1 | 1.48 |

// moving on: another record for log10(Ki)
Which value of log10(Ki) has been reported for Cc1cc(CN2CCC(N3C(=O)CC[C@@H]3C(=O)Nc3cc(C(=O)N(C)C)cc(C(=O)N(C)C)c3)CC2)ccc1Cl in the records? 0.70

###

Target: human chemokine receptor CCR3 (Homo sapiens, UniProt P51677)
Sequence (P51677 1-355): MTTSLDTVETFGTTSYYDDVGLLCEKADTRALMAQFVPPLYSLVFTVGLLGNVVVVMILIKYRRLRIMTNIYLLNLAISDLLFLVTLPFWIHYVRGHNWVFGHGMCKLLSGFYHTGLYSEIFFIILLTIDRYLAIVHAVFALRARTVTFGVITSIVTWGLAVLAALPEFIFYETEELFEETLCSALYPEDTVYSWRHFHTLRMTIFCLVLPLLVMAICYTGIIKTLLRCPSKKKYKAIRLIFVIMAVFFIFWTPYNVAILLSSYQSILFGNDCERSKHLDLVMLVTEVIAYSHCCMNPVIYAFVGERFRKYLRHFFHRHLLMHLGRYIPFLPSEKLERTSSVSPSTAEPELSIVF
Can you tell me pKi for the items I'm about to list?
One number for each entry, as −log10 of the molar value.

Known pKi results, listed for orientation:
| compound | pKi |
| --- | --- |
| Cc1cc(CN2CCC(N3C(=O)CC[C@H]3C(=O)Nc3cccc(Cc4ccncc4)c3)CC2)ccc1Cl | 6.18 |
| Cc1cc(CN2CCC(N3C(=O)CC[C@@H]3C(=O)Nc3cccc(N4CCCCC4)c3)CC2)ccc1Cl | 8.15 |
| CCOC(=O)Cc1csc(NC(=O)[C@H]2CCC(=O)N2C2CCN(Cc3ccc(Cl)c(C)c3)CC2)n1 | 6.69 |
| CNC(=O)c1cccc(NC(=O)[C@H]2CCC(=O)N2C2CCN(Cc3ccc(Cl)c(C)c3)CC2)c1 | 7.74 |

I need pKi for every entry listed below, if you could help.
1. Cc1cc(CN2C3CCC2CC(N2C(=O)CC[C@@H]2C(=O)Nc2cc(C4CC4)nn2C)C3)ccc1Cl (stereo partly shown)
2. Cc1cc(CN2CCC(N3C(=O)CC[C@H]3C(=O)Nc3n[nH]c4ccccc34)CC2)ccc1Cl
3. Cc1cc(CN2CCC(N3C(=O)CC[C@@H]3C(=O)Nc3cccc(C(=O)NCC(F)F)c3)CC2)ccc1Cl

[6.46, 6.32, 8.10]
